Could you please report measured activity change, negative = inhibition for the items listed next?
# Protocol details: T. gondii ME49Luc in HeLa cells, luciferase assay, 72 h, no IFN-y (AID 1259421)
# Conditions used: hits give low values, concentration not given here
Hit rate of the full screen: of about 6,400 compounds, about 610 (9.5%) were called active. Shown is part of a subset that was picked to be rich in actives.
One number for each entry, in %.

Dear reader, for each entry below, please note its activity change, negative = inhibition.
1. C[C@@H]1CC[C@]2(C(=O)O)CC[C@]3(C)C(=CCC4[C@@]5(C)CC[C@H](O)C(C)(C)C5CC[C@]43C)C2[C@H]1C (stereo partly drawn)
2. NC(=O)/N=N/C(N)=O
3. CC(=O)OC(C)(C)[C@@H]1Cc2cc3ccc(=O)oc3cc2O1

8.22
7.42
-5.08

Dear reader, for each entry below, please note its activity change, negative = inhibition.
1. CO[C@@H]1COCC[C@@H]1N[C@@H]1CC[C@@](C(=O)N2CCc3ncc(C(F)(F)F)cc3C2)(C(C)C)C1
2. Clc1ccc(C(Cn2ccnc2)OCc2csc3c(Cl)cccc23)c(Cl)c1 (stereo not drawn)
3. C[C@H]1[C@H](C)CC[C@]2(C(=O)O)CC[C@]3(C)C(=CCC4[C@@]5(C)C[C@@H](O)[C@H](O)[C@@](C)(CO)C5[C@H](O)C[C@]43C)[C@H]12 (stereo partly drawn)
4. CCCNC(=O)Nc1ccc(Oc2ncnc3cc(OC)c(OC)cc23)cc1Cl

1: 3.98; 2: -75.6; 3: -87.6; 4: 6.99

Dear reader, for each entry below, please note its activity change, negative = inhibition.
1. O=C(O)CCCN1C(=O)c2cccc3cccc(c23)C1=O
2. Cc1cc(Nc2ccc(NC(=O)c3ccc(Nc4ccnc5ccccc45)cc3)cc2)nc(N)n1
3. C=C[C@H]1CN2CC[C@H]1C[C@@H]2[C@H](O)c1ccnc2ccc(OC)cc12
4. CCS(=O)(=O)N1CCN(c2ccc(Nc3ncc(C(N)=O)c(NC4CC4)n3)cc2)CC1
5. CC(C)C[C@H](N[C@@H](Cc1cncn1Cc1cc(Cl)cc(Cl)c1)C(=O)O)C(=O)O
6. CCOC(=O)C(C)Oc1cccc2c(=O)n(CC(=O)Nc3ccc4c(c3)OCCO4)ccc12 (stereo not drawn)
7. COc1cc2ncnc(Oc3cccc(NC(=O)Nc4cc(C(C)(C)C(F)(F)F)on4)c3)c2cc1OC
8. CC(=O)OCC(=O)[C@@]1(O)CCC2C3CCC4=CC(=O)CC[C@]4(C)C3=CC[C@@]21C (stereo partly drawn)

1. -5.26
2. -89.9
3. -4.38
4. -79.3
5. 6.67
6. 14.7
7. -78.4
8. -0.754

Dear reader, for each entry below, please note its activity change, negative = inhibition.
1. COc1cc2ncnc(Nc3cccc(O)c3)c2cc1OC
2. Oc1ccc([C@H]2Oc3cc(O)cc(O)c3C[C@H]2O)cc1
3. CN(C)Cc1c(C(=O)NCCOc2ccc(C(=O)NO)cc2)oc2ccccc12
4. CCC(C)C(=O)O[C@H]1C[C@H](O)C=C2C=C[C@H](C)[C@H](CC[C@@H](O)C[C@@H](O)CC(=O)O)C21 (stereo partly drawn)
5. C[C@H]1[C@H](C)CC[C@]2(C(=O)O)CC[C@]3(C)C(=CCC4[C@@]5(C)C[C@@H](O)[C@H](O)[C@@](C)(CO)C5CC[C@]43C)[C@H]12 (stereo partly drawn)

10.5
0.946
-78.9
4.96
14.3
